Assayed system: fibrinogen binding to thrombin-stimulated platelets (GPIIb/IIIa fibrinogen receptor) (Homo sapiens, UniProt P05106+P08514)
Construct: endogenous in cells; host or cells: washed platelets stimulated with human alpha-thrombin
Sequence (P08514 32-887 limits assumed): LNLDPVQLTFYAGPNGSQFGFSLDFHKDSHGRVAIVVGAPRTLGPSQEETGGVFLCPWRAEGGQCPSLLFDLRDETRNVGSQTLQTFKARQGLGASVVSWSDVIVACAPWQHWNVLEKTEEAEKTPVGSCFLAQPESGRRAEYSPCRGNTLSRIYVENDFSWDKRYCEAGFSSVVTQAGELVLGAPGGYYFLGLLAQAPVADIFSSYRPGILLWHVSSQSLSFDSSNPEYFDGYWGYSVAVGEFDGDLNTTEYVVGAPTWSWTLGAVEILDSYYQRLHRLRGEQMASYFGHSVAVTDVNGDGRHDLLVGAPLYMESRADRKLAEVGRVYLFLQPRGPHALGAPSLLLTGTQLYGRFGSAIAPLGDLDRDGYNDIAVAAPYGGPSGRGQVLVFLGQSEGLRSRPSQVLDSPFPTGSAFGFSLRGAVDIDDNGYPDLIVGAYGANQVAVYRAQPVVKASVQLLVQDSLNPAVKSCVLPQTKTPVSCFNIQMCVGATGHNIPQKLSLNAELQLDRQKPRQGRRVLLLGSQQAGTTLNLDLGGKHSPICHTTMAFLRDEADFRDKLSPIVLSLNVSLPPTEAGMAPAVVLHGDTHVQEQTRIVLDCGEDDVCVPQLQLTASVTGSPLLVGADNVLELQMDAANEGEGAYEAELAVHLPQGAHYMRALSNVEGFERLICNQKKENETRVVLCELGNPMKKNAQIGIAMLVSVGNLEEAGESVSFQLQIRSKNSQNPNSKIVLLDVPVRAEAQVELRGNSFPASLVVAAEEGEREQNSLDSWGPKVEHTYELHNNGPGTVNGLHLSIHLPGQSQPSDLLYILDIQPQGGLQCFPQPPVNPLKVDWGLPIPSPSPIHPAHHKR
Sequence (P08514 891-1039 limits assumed): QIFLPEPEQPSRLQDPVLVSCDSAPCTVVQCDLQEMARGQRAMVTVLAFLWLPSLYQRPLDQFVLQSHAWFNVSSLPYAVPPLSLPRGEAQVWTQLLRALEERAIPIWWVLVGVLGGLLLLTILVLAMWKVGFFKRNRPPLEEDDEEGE
Sequence (P05106 27-788): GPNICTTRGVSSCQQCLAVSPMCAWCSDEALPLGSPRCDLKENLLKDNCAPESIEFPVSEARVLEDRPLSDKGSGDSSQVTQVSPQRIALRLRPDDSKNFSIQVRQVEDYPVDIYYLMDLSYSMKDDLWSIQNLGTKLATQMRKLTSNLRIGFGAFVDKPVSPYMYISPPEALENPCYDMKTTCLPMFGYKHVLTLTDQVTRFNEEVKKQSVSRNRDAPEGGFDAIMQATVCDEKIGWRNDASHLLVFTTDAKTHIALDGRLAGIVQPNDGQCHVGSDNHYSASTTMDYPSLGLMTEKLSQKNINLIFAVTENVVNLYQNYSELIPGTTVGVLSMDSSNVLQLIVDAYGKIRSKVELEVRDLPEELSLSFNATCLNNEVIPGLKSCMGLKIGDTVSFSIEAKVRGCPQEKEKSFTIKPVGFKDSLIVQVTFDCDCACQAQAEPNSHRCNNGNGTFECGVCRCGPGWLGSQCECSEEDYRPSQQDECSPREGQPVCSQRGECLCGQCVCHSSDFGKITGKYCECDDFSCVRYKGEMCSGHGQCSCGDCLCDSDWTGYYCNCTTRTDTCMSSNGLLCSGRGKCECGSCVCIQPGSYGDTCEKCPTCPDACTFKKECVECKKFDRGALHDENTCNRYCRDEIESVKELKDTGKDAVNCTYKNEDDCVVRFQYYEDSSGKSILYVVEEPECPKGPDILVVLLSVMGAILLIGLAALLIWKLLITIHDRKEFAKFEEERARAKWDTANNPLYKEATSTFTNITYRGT
Assay comment: Inhibition of Radiolabeled (125I) Fibrinogen Binding Assay
Condition set: thrombin-stimulated washed platelets, 22-25° C.; read-out: Inhibition of 125I-Fibrinogen (binding to) Platelet IC50
Measured metric: IC50 (µM)

[A] CC(C)[C@H](NC(=O)[C@H](CC(=O)O)NC(=O)Cc1ccc(NC(=N)N)cc1)C(=O)O
[B] CC(C)[C@H](NC(=O)[C@H](CC(=O)O)NC(=O)c1cccc(CCNC(=N)N)c1)C(=O)O
[C] CC(C)[C@H](NC(=O)[C@H](CC(=O)O)NC(=O)C=Cc1ccc(NC(=N)N)cc1)C(=O)O
Q: Lab note: arrange the 3 compounds above from lowest to highest IC50. Rank them, then answer with their labels in that order.
Ans: C, A, B

[P] CC(C)[C@H](NC(=O)[C@H](CC(=O)O)NC(=O)c1ccc(CNC(=N)N)cc1)C(=O)O
[Q] CC(C)[C@H](NC(=O)[C@H](CC(=O)O)NC(=O)CCc1ccc(NC(=N)N)cc1)C(=O)O
Q: Which has the higher IC50, P or Q ? Reply with the label of the item you choose.
Ans: P
